In this section, each of the compounds is paired with its reported melting point.

compound: O=C(NCc1cccc(-c2ccc(F)cc2)c1)Nc1cccc2c1CC(O)CC2 (centres unmarked)
melting point: 194 to 195 °C
--
compound: COc1ccc(-c2cccc(CNC(=O)Nc3cccc4c3CC(O)CC4)c2)cc1OC (centres unmarked)
melting point: 223 to 224 °C
--
compound: O=C(NCc1ccc(-c2cccc(OC(F)(F)F)c2)cc1)Nc1cccc2c1CC(O)CC2 (centres unmarked)
melting point: 218 to 219 °C
--
compound: Cc1ccc(-c2cccc(NC(=O)Nc3cccc4c3CC(O)CC4)c2)cc1 (centres unmarked)
melting point: 217 to 219 °C
--
compound: COc1ccc(OC)c(-c2cccc(CNC(=O)Nc3cccc4c3CC(O)CC4)c2)c1 (centres unmarked)
melting point: 123 to 124 °C
--
compound: Cc1ccc(-c2ccc(CNC(=O)Nc3cccc4c3CC(O)CC4)cc2)cc1 (centres unmarked)
melting point: 211 to 212 °C
--
compound: O=C(NCc1cccc(-c2cccc(OC(F)(F)F)c2)c1)Nc1cccc2c1CC(O)CC2 (centres unmarked)
melting point: 175 to 176 °C
--
compound: Cc1cc(C)cc(-c2cccc(NC(=O)Nc3cccc4c3CC(O)CC4)c2)c1 (centres unmarked)
melting point: 221 °C
--
compound: O=C(Nc1cccc(-c2ccc(C(=O)O)cc2)c1)Nc1cccc2c1CC(O)CC2 (centres unmarked)
melting point: 281 to 284 °C
--
compound: O=C(NCc1cccc(-c2c(F)cccc2F)c1)Nc1cccc2c1CC(O)CC2 (centres unmarked)
melting point: 141 to 142 °C
--
compound: O=C(NCc1ccc(-c2cc(Cl)ccc2Cl)cc1)Nc1cccc2c1CC(O)CC2 (centres unmarked)
melting point: 139 to 140 °C
--
compound: O=C(Nc1cccc(-c2cccc(OC(F)(F)F)c2)c1)Nc1cccc2c1CC(O)CC2 (centres unmarked)
melting point: 195 °C
--
compound: O=C(Nc1cccc(-c2cccc(Cl)c2Cl)c1)Nc1cccc2c1CC(O)CC2 (centres unmarked)
melting point: 204 °C
--
compound: O=C(Nc1cccc(-c2ccc(F)cc2)c1)Nc1cccc2c1CC(O)CC2 (centres unmarked)
melting point: 228 °C
--
compound: O=C(NCc1ccc(-c2ccc(F)cc2)cc1)Nc1cccc2c1CC(O)CC2 (centres unmarked)
melting point: 201 to 202 °C
--
compound: Cc1cc(C)cc(-c2ccc(CNC(=O)Nc3cccc4c3CC(O)CC4)cc2)c1 (centres unmarked)
melting point: 205 to 206 °C
--
compound: CN(C)c1ccc(-c2ccc(CNC(=O)Nc3cccc4c3CC(O)CC4)cc2)cc1 (centres unmarked)
melting point: 205 to 206 °C

----------
Target: human VR1 (Homo sapiens)
Construct: expressed in transfected cells
Sequence (Q8NER1 whole entry): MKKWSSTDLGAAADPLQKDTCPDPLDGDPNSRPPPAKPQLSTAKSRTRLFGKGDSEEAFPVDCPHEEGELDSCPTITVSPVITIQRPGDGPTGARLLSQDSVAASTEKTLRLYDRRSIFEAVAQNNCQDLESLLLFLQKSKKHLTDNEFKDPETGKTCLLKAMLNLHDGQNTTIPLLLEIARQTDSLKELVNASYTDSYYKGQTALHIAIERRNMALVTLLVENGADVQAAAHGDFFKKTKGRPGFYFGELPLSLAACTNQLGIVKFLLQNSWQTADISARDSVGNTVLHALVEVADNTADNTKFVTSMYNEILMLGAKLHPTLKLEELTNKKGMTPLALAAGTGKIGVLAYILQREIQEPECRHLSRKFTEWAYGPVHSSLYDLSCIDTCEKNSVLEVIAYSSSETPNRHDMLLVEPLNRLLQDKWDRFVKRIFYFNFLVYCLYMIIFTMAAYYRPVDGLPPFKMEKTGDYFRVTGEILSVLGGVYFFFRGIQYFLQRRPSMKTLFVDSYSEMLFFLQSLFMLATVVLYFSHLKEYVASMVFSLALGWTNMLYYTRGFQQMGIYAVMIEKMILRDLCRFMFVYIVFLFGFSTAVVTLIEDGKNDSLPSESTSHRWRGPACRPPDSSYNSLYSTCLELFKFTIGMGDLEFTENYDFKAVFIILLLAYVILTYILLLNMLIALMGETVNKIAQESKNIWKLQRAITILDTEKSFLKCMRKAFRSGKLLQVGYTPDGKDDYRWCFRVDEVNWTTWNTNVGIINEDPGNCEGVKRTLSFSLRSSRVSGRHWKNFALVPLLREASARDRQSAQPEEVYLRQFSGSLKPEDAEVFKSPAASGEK
Assay: Capsaicin-induced Ca2+ influx in the human VR1-transfected CHO cell line (Assay 1)
Format: cell-based
Details: human VR1-CHOluc9aeq cells, stimulation with 10 nM capsaicin, Fluo-3 AM / FDSS-3000; compounds of purity about 40 to 90%; read-out: Activity Class (IC50 of capsaicin-induced Ca2+ influx)
In this section, each of the compounds is paired with its reported IC50.

compound: O=C(NCc1cccc(-c2ccc(F)cc2)c1)Nc1cccc2c1CC(O)CC2 (centres unmarked) [Example 1-55]
system under test: human VR1 (Homo sapiens)
IC50: < 0.1 µM
--
compound: O=C(NCc1cccc(-c2ccc(F)cc2F)c1)Nc1cccc2c1CC(O)CC2 (centres unmarked) [Example 1-64]
system under test: human VR1 (Homo sapiens)
IC50: < 0.1 µM
--
compound: CC(C)c1ccc(-c2ccc(CNC(=O)Nc3cccc4c3CC(O)CC4)cc2)cc1 (centres unmarked) [Example 1-52]
system under test: human VR1 (Homo sapiens)
IC50: < 0.1 µM
--
compound: O=C(NCc1cccc(-c2ccccc2F)c1)Nc1cccc2c1CC(O)CC2 (centres unmarked) [Example 1-66]
system under test: human VR1 (Homo sapiens)
IC50: < 0.1 µM
--
compound: O=C(Nc1cccc(-c2cccc(C(F)(F)F)c2)c1)Nc1cccc2c1CC(O)CC2 (centres unmarked) [Example 1-23]
system under test: human VR1 (Homo sapiens)
IC50: < 0.1 µM
--
compound: O=C(Nc1cccc(-c2cccc3ccccc23)c1)Nc1cccc2c1CC(O)CC2 (centres unmarked) [Example 1-75]
system under test: human VR1 (Homo sapiens)
IC50: < 0.1 µM
--
compound: COc1ccc(-c2cccc(NC(=O)Nc3cccc4c3CC(O)CC4)c2)cc1 (centres unmarked) [Example 1-14]
system under test: human VR1 (Homo sapiens)
IC50: < 0.1 µM
--
compound: O=C(NCc1ccc(-c2cccc(C(F)(F)F)c2)cc1)Nc1cccc2c1CC(O)CC2 (centres unmarked) [Example 1-44]
system under test: human VR1 (Homo sapiens)
IC50: < 0.1 µM
--
compound: CN(C)c1ccc(-c2cccc(NC(=O)Nc3cccc4c3CC(O)CC4)c2)cc1 (centres unmarked) [Example 1-26]
system under test: human VR1 (Homo sapiens)
IC50: < 0.1 µM
--
compound: COc1ccc(-c2cccc(C(=O)Nc3cccc4c3CC(O)CC4)c2)cc1 (centres unmarked) [Example 2-5]
system under test: human VR1 (Homo sapiens)
IC50: 0.5 to 1 µM
--
compound: Cc1cc(C)cc(-c2ccc(CNC(=O)Nc3cccc4c3CC(O)CC4)cc2)c1 (centres unmarked) [Example 1-51]
system under test: human VR1 (Homo sapiens)
IC50: < 0.1 µM
--
compound: O=C(Nc1cccc(-c2cccc(Cl)c2)c1)Nc1cccc2c1CC(O)CC2 (centres unmarked) [Example 1-18]
system under test: human VR1 (Homo sapiens)
IC50: < 0.1 µM
--
compound: O=C(NCc1ccc(-c2ccc(OC(F)(F)F)cc2)cc1)Nc1cccc2c1CC(O)CC2 (centres unmarked) [Example 1-43]
system under test: human VR1 (Homo sapiens)
IC50: < 0.1 µM
--
compound: Cc1cc(C)cc(-c2cccc(CNC(=O)Nc3cccc4c3CC(O)CC4)c2)c1 (centres unmarked) [Example 1-67]
system under test: human VR1 (Homo sapiens)
IC50: < 0.1 µM
--
compound: O=C(NCc1cccc(-c2ccc(Cl)cc2Cl)c1)Nc1cccc2c1CC(O)CC2 (centres unmarked) [Example 1-72]
system under test: human VR1 (Homo sapiens)
IC50: < 0.1 µM
--
compound: COc1ccc(-c2ccc(CNC(=O)Nc3cccc4c3CC(O)CC4)cc2)cc1OC (centres unmarked) [Example 1-47]
system under test: human VR1 (Homo sapiens)
IC50: 0.5 to 1 µM
--
compound: O=C(NCc1ccc(-c2ccc(F)cc2F)cc1)Nc1cccc2c1CC(O)CC2 (centres unmarked) [Example 1-49]
system under test: human VR1 (Homo sapiens)
IC50: < 0.1 µM

----------
compound: O=C(NCc1ccc(-c2c(F)cccc2F)cc1)Nc1cccc2c1CC(O)CC2 (centres unmarked)
melting point: 204 to 205 °C

compound: O=C(Nc1cccc(-c2cccc3ccccc23)c1)Nc1cccc2c1CC(O)CC2 (centres unmarked)
melting point: 223 °C

compound: CSc1ccc(-c2cc(CNC(=O)Nc3cccc4c3CC(O)CC4)ccc2N2CCCCC2)cc1 (centres unmarked)
melting point: 113 to 115 °C

compound: COc1ccc(-c2cccc(CNC(=O)Nc3cccc4c3CC(O)CC4)c2)cc1 (centres unmarked)
melting point: 188 to 189 °C

compound: CCOC(=O)c1ccc(-c2cccc(NC(=O)Nc3cccc4c3CC(O)CC4)c2)cc1 (centres unmarked)
melting point: 198 to 200 °C

compound: CC(=O)c1ccc(-c2cccc(NC(=O)Nc3cccc4c3CC(O)CC4)c2)cc1 (centres unmarked)
melting point: 216 °C

compound: CC(C)c1ccc(-c2ccc(CNC(=O)Nc3cccc4c3CC(O)CC4)cc2)cc1 (centres unmarked)
melting point: 202 to 203 °C

compound: COc1ccc(OC)c(-c2cccc(NC(=O)Nc3cccc4c3CC(O)CC4)c2)c1 (centres unmarked)
melting point: 190 °C

compound: O=C(NCc1cccc(-c2cc(C(F)(F)F)cc(C(F)(F)F)c2)c1)Nc1cccc2c1CC(O)CC2 (centres unmarked)
melting point: 208 to 209 °C

compound: O=C(Cc1cccc(-c2ccccc2)c1)Nc1cccc2c1CC(O)CC2 (centres unmarked)
melting point: > 134 °C (dec.)

compound: O=C(Nc1cccc(-c2cccc([N+](=O)[O-])c2)c1)Nc1cccc2c1CC(O)CC2 (centres unmarked)
melting point: 238 °C

compound: O=C(Nc1cccc(-c2ccc(Cl)cc2Cl)c1)Nc1cccc2c1CC(O)CC2 (centres unmarked)
melting point: 208 °C

compound: Cc1cc(C)cc(-c2cccc(CNC(=O)Nc3cccc4c3CC(O)CC4)c2)c1 (centres unmarked)
melting point: 197 to 198 °C

compound: COc1ccc(-c2cccc(NC(=O)Nc3cccc4c3CC(O)CC4)c2)cc1 (centres unmarked)
melting point: 203 °C

compound: O=C(NCc1cccc(-c2ccccc2F)c1)Nc1cccc2c1CC(O)CC2 (centres unmarked)
melting point: 197 to 198 °C

compound: COc1ccccc1-c1ccc(CNC(=O)Nc2cccc3c2CC(O)CC3)cc1 (centres unmarked)
melting point: 128 to 129 °C

compound: O=C(Nc1cccc2c1CC(O)CC2)c1ccc(-c2ccccc2)cc1 (centres unmarked)
melting point: 215 to 217 °C

compound: O=C(Nc1cccc(-c2cccc(Cl)c2)c1)Nc1cccc2c1CC(O)CC2 (centres unmarked)
melting point: 209 °C

compound: COc1ccc(-c2ccc(CNC(=O)Nc3cccc4c3CC(O)CC4)cc2)cc1OC (centres unmarked)
melting point: 205 to 206 °C

compound: COc1ccc(OC)c(-c2ccc(CNC(=O)Nc3cccc4c3CC(O)CC4)cc2)c1 (centres unmarked)
melting point: 113 to 114 °C

compound: O=C(NCc1cccc(-c2ccc(F)c(F)c2)c1)Nc1cccc2c1CC(O)CC2 (centres unmarked)
melting point: 188 to 189 °C

compound: O=C(NCc1ccc(-c2ccc(F)c(Cl)c2)cc1)Nc1cccc2c1CC(O)CC2 (centres unmarked)
melting point: 205 to 206 °C

compound: O=C(Nc1cccc2c1CC(O)CC2)c1ccc(-c2ccc(F)c(F)c2)cc1 (centres unmarked)
melting point: 210.4 to 212.7 °C

compound: O=C(NCc1ccc(-c2ccc(F)c(F)c2)cc1)Nc1cccc2c1CC(O)CC2 (centres unmarked)
melting point: 191 to 192 °C

compound: O=C(Nc1cccc(-c2ccc(OC(F)(F)F)cc2)c1)Nc1cccc2c1CC(O)CC2 (centres unmarked)
melting point: 210 °C

compound: CN(C)c1ccc(-c2ccc(C(=O)Nc3cccc4c3CC(O)CC4)cc2)cc1 (centres unmarked)
melting point: 222.1 to 225 °C
